A collection of molecules and their measured growth inhibition
Experiment Summary: NCI Yeast Anticancer Drug Screen. Data for the sgs1 mgt1 strain (AID 161);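 further: 0% = growth of cultures given vehicle only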
Reported Conditions: S. cerevisiae sgs1 mgt1 strain, at 5.0 µM (retest, dose inferred, filed as 0.5), active compounds read high
The panel holds about 79,000 compounds, 15% with a hit somewhere; the sample as a whole holds those more often. Active and inactive are the calls of the source. No stated cut-off is given here; in the data, active means growth inhibition above about 70%; inactive means the rest.
Measure Name: growth inhibition

INSERT INTO assay_data (molecule, test_result) VALUES
  ('CCC(N)C(O)C(C)C (stereo unspecified)', '-3% (inactive)'),
  ('Nc1ccccc1[S][Sn]([c]1ccccc1)([c]1ccccc1)[c]1ccccc1', '99% (active)'),
  ('CC(=O)c1c2c(cc3c1CC1(Cc4ccccc4C1=O)C3)CCC2 (stereo unspecified)', '-36% (inactive)'),
  ('CN(C)CC(C)(C)C(/C=C/c1ccccc1)=N\Nc1ccccc1', '12% (inactive)'),
  ('Nc1nc2ccccc2cc1C(=O)O', '-61% (inactive)'),
  ('CC(/C=C/c1cccc(C)c1)=N\NC(N)=S', '16% (inactive)'),
  ('N#Cc1cccc(C[P+](c2ccccc2)(c2ccccc2)c2ccccc2)c1', '3% (inactive)'),
  ('Nc1nc(-c2cccnc2)nc(N)c1N=O', '15% (inactive)'),
  ('COc1ccc2ccc(/C=C/[N+](=O)[O-])cc2c1OC', '53% (inactive)'),
  ('C/C=C/c1cc2c(cc1O)CC[C@@H]1[C@@H]2CC[C@]2(C)[C@@H](O)CC[C@@H]12', '11% (inactive)'),
  ('COc1cc[c]([Sn]([c]2ccc(OC)cc2)([c]2ccc(OC)cc2)[c]2ccc(OC)cc2)cc1', '-5% (inactive)');

---

Experiment Summary: NCI Yeast Anticancer Drug Screen. Data for the sgs1 mgt1 strain (AID 161);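 further: 0% = growth of cultures given vehicle only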
Reported Conditions: S. cerevisiae sgs1 mgt1 strain, at 50.0 µM (retest, dose inferred, filed as 5.0)
Compounds without any hit were thinned out: in the full panel of roughly 79,000, 15% have a hit. Activity calls are given as the source filed them. Cut-off read from the data, not from the text of the source: active = growth inhibition above about 70%; inactive = the rest.
Possible outcomes: active, inactive

INSERT INTO assay_data (compound, assigned_label) VALUES
  ('CC(C)CCCC(O)CNCc1ccccc1 (stereo unspecified)', 'inactive'),
  ('NC(=S)Nc1cccc(C(F)(F)F)c1', 'active'),
  ('C=CC1(C)CCC2C(=CCC3C(C)(COC4OC(CO)C(O)C(O)C4O)C(O)CCC23C)C1 (stereo unspecified)', 'inactive'),
  ('COC(=O)C(=O)N(c1cc(C)ccc1C)c1cc(C)ccc1C', 'inactive'),
  ('Cc1ccc(S(=O)(=O)NNc2nc(N3CCOCC3)nc(N3CCOCC3)n2)cc1', 'inactive'),
  ('c1ccc(CC(Cc2ccccc2)c2cccnc2)cc1', 'active');

---

Experiment Summary: NCI Yeast Anticancer Drug Screen. Data for the mec2-1 strain (AID 157)
Reported Conditions: S. cerevisiae mec2-1 strain, at 5.0 µM (retest, dose inferred, filed as 0.5), active compounds read high
Procedure: Growth inhibition of yeast strains with defined genetic alterations is measured as a screen for potential anti-cancer activity. Selected strains with alterations in DNA damage repair or cell cycle control were exposed to compounds and growth inhibition was measured relative to vehicle treated controls. The strain used in this assay is mec2-1
About 79,000 compounds went through this panel and 15% of them were active in at least one assay; those are over-represented in the sample as a whole.
Examples of compounds with documented growth inhibition follow.
Measure Name: growth inhibition (%)

INSERT INTO results (compound, test_result) VALUES
  ('CCN(CC)CCO/N=C1\CC[C@H]2[C@@H]3CCc4cc(OC)ccc4[C@H]3CC[C@]12C', 27),
  ('O=C(N/C(=C\c1ccc([N+](=O)[O-])cc1)c1nc2ccccc2s1)c1ccccc1', 1),
  ('Cc1cc2c(cc1C)[n+]([O-])c(-c1c(Cl)cccc1Cl)c(N)[n+]2[O-]', 27),
  ('O=C(c1ccccc1)C(c1ccccc1)C1(O)C(=O)Nc2c(Cl)cc(Cl)cc21 (stereo unspecified)', -6),
  ('CCN(CC)c1ccc(NC(CC(O)c2ccccc2)c2ccccc2)cc1 (stereo unspecified)', -3),
  ('CCCCCCCCCCCC(=O)NCCc1ccc(O)c(O)c1', 5),
  ('O=C1C(Cl)=C(Cl)C(=O)C2=C1CC(Cl)C(Cl)C2 (stereo unspecified)', 90),
  ('O=P1(N2CCCCC2)N(Cc2ccc(Cl)cc2)CCCN1Cc1ccc(Cl)cc1', 65),
  ('CC1(C)N=C(N)N=C(N)N1c1cccc(OCc2cccc(N)c2)c1', 12),
  ('O=C(Cl)c1ccc(N=Nc2ccccc2)cc1', -1),
  ('CC(=O)Oc1c2c(c(C)c3ccccc13)C(=O)c1cccnc1C2=O', 6);

---

Measured growth inhibition values are reported for all entries that follow.
Experiment Summary: NCI Yeast Anticancer Drug Screen. Data for the mlh1 rad18 strain (AID 175)
Reported Conditions: S. cerevisiae mlh1 rad18 strain growth inhibition; at 5.0 µM (retest, dose inferred, filed as 0.5); active compounds read high
Experimental: Growth inhibition of yeast strains with defined genetic alterations is measured as a screen for potential anti-cancer activity. Selected strains with alterations in DNA damage repair or cell cycle control were exposed to compounds and growth inhibition was measured relative to vehicle treated controls. The strain used in this assay is mlh1 rad18
This is part of a sample that, as a whole, favours compounds with a hit. Of some 79,000 tested, about 15% had one in any assay. Active and inactive are the calls of the source. Rule as the data show it: active = growth inhibition above about 70%; inactive = the rest.
Measure Name: growth inhibition

INSERT INTO assay_data (compound, test_result) VALUES
  ('CN(C)CC(C)(CN(C)C)C(=O)/C=C/c1ccc(Cl)c(Cl)c1', '41% (inactive)'),
  ('O=[N+]([O-])c1cccc(C=Nc2ccccc2O)c1', '24% (inactive)'),
  ('O=S(=O)(/C=C/c1cccnc1)/C=C/c1cccnc1', '-4% (inactive)'),
  ('C1CCC(C2CCC(N3CCCCC3)CC2)CC1 (centres undefined)', '67% (inactive)'),
  ('Cc1ccc(C(=O)CCCN2CCOCC2)c(C)c1', '5% (inactive)'),
  ('CC1(C)N=C(N)N=C(N)N1c1cccc(OCc2cccc(N)c2)c1', '5% (inactive)'),
  ('CCCC(C(=O)OCCNC1CCCCC1)c1ccccc1 (centres undefined)', '2% (inactive)'),
  ('O=C(Nc1ccccc1)ON=C1CCCCC1', '5% (inactive)'),
  ('O=C(CBr)c1cccc(OC(=O)c2ccccc2)c1', '90% (active)'),
  ('Cc1c2ccncc2cc2c1sc1ccncc12', '96% (active)'),
  ('COc1cc(/C=N/NC(=S)Nc2ccccc2)ccc1O', '-16% (inactive)'),
  ('O=C1c2ccccc2-c2ccc(N3C(=O)C4CCCCC4C3=O)cc21 (centres undefined)', '-4% (inactive)'),
  ('CCCCN(CCCC)C(=O)c1ccc(OC(=O)OCC)c(OC)c1', '-2% (inactive)'),
  ('Cc1c(C)c(O)c2c(c1O)C(=O)C=C(Cl)C2=O', '99% (active)'),
  ('OCC(c1ccccc1)c1ccccc1', '11% (inactive)'),
  ('COC(=O)c1ccc([N+](=O)[O-])o1', '13% (inactive)'),
  ('COc1ccc2c(ccc[n+]2CC(=O)c2ccc(-c3ccccc3)cc2)c1', '-3% (inactive)'),
  ('CCc1cc(CC)c(-c2ccco2)c(COC(=O)NC)c1', '-1% (inactive)'),
  ('Cn1cc(CCC(=O)C2C=CC=CC2=NC(=O)CCCl)c2ccccc21 (centres undefined)', '-2% (inactive)'),
  ('CC(=O)Nc1ccc(Nc2ccc(C(=C3C=CC(=[N+](C)CCC#N)C=C3)c3ccc(N(C)CCC#N)cc3)cc2)cc1', '15% (inactive)'),
  ('CCN(CC)CCNc1ccc2ncn3c4c(OC)ccc(=O)c4c(O)c1c23', '9% (inactive)'),
  ('Cc1ccc(S(=O)(=O)Nn2c(S)c(C#N)c(-c3ccc(Cl)cc3)c(C#N)c2=O)cc1', '24% (inactive)'),
  ('COc1ccc(-c2ccccc2)cc1SCCC(=O)O', '-2% (inactive)'),
  ('O=c1cc(N=Nc2ccc(Cl)c(Cl)c2)[nH]c(=O)[nH]1', '41% (inactive)');

---

Experiment Summary: NCI Yeast Anticancer Drug Screen. Data for the rad50 strain (AID 155);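 further: 0% = growth of vehicle-only cultures of the same strain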
Reported Conditions: S. cerevisiae rad50 strain growth inhibition; at 50.0 µM; active compounds read high
This is part of a sample that, as a whole, favours compounds with a hit. Of some 79,000 tested, about 15% had one in any assay.
Measure Name: growth inhibition (%)

INSERT INTO results (smiles, result_unit, test_result) VALUES
  ('C/C(=C\c1ccccc1Cl)c1ccccn1', '%', 86.2),
  ('Cc1ccc(OC/C=C/c2cccc(C#N)c2)cc1', '%', -0.45),
  ('N#CC(=C1C=CC(=NOC(=O)Nc2ccccc2)C=C1)c1ccccc1', '%', 99),
  ('Cc1nn(CCO)c(=O)c(C#N)c1C', '%', 66.2),
  ('CCC[CH2][Sn]([CH2]CCC)([O]N(C)C(=O)c1ccc(Br)cc1)[O]N(C)C(=O)c1ccc(Br)cc1', '%', 89.5),
  ('O=C(O)c1ccccc1-c1c2ccc(=O)c(Br)c-2oc2c(Br)c(O)ccc12', '%', 87.5);

# credit: PubChem BioAssay (NCI)
